target-entity: human FPR2 (Homo sapiens)
Construct: expressed in transfected cells
Sequence (P25090 whole entry): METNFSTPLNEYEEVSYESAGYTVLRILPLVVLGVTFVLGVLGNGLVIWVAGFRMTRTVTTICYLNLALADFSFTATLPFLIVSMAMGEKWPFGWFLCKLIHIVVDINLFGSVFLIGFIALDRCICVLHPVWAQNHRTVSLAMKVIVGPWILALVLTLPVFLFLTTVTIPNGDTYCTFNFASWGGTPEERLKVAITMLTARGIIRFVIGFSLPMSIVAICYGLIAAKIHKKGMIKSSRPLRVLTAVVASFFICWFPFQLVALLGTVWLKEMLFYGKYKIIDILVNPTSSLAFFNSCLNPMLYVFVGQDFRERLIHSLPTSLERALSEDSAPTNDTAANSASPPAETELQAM
method-description: Calcium mobilization, CHO cells expressing FPR2
Assay type: cell-based
measurement-conditions: normalized to ATP 100 µM, mean ± SEM, read-out: [Ca2+]i mobilization FPR2 Emax
Non-standard residues stand in square brackets, D forms with d. Residues, ends and D or L forms follow the SMILES beside them. *: point of attachment. Cha = N[C@@H](CC1CCCCC1)C(=O)O; For = O=C*
quantity-measured: Emax
A bare number is not enough; add the unit after it.

Examples with their reported Emax follow.
CSCC[C@H](NC=O)C(=O)N[C@@H](CC(C)C)C(=O)N[C@@H](Cc1ccccc1)C(=O)NCC(N)=O [FP1, fMLFG-NH2] (For-MLFG-NH2)	34%
CSCC[C@H](NC=O)C(=O)N[C@@H](CC(C)C)C(=O)N[C@@H](Cc1ccccc1)C(=O)O [fMLF, N-formyl-Met-Leu-Phe, reference compound]	18%
CN[C@H](CC(C)C)C(=O)N[C@H]1C(=O)N[C@@H](CC(N)=O)C(=O)N[C@H]2C(=O)N[C@H]3C(=O)N[C@H](C(=O)N[C@H](C(=O)NCCCn4cc(C[C@H](NC(=O)CNC(=O)[C@H](Cc5ccccc5)NC(=O)[C@H](CC(C)C)NC(=O)[C@H](CCSC)NC=O)C(N)=O)nn4)c4cc(O)cc(O)c4-c4cc3ccc4O)[C@H](O)c3ccc(c(Cl)c3)Oc3cc2cc(c3O[C@@H]2O[C@H](CO)[C@@H](O)[C@H](O)[C@H]2O[C@H]2C[C@](C)(N)[C@H](O)[C@H](C)O2)Oc2ccc(cc2Cl)[C@H]1O	45%
CSCC[C@H](NC=O)C(=O)N[C@@H](CC1CCCCC1)C(=O)N[C@@H](Cc1ccccc1)C(=O)NCC(N)=O [FP11, fM-Cha-FG-NH2] (For-M[Cha]FG-NH2)	43%

Please fill in: Emax reported for `CN[C@H](CC(C)C)C(=O)N[C@H]1C(=O)N[C@@H](CC(N)=O)C(=O)N[C@H]2C(=O)N[C@H]3C(=O)N[C@H](C(=O)N[C@H](C(=O)NCCCn4cc(C[C@H](NC(=O)CNC(=O)[C@H](Cc5ccccc5)NC(=O)[C@H](CC5CCCCC5)NC(=O)[C@H](CCSC)NC=O)C(N)=O)nn4)c4cc(O)cc(O)c4-c4cc3ccc4O)[C@H](O)c3ccc(c(Cl)c3)Oc3cc2cc(c3O[C@@H]2O[C@H](CO)[C@@H](O)[C@H](O)[C@H]2O[C@H]2C[C@](C)(N)[C@H](O)[C@H](C)O2)Oc2ccc(cc2Cl)[C@H]1O` = 27%
